These entries and their values trace back to PubChem BioAssay.

Assay: S. cerevisiae growth inhibition in restrictive medium, OD615, pilot screen, restrictive growth control, yeast lifespan reduction project (AID 706);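 also: modified DeaD lifespan yeast strain shifted to restrictive glucose medium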
Details: OD615, 48 h, at 10 µM
Active and inactive are the calls of the source.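 The calls were made as follows: active = growth inhibition above a set limit, 3 SD over mean compound inhibition, in both replicates (cut at about 43% in these data); inconclusive = above the limit in only one replicate; inactive = at or below the limit in both replicates.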
Pick one: active, inactive

{"compound": "Cc1nc2c(-c3ccccc3)c(C)nn2c(C)c1CCC(=O)NCc1ccco1", "answer_label": "inactive"}

Test call, this compound: CC1NC2(C(=O)N(Cc3ccccc3)c3ccccc32)C2C(=O)N(c3ccccc3)C(=O)C12 (stereo unspecified)
inactive

Test call, this compound: CC(C)c1ccc(-c2nc(N3CCCCC3)[nH]c(=O)c2C#N)cc1
inactive

Test call, this compound: O=C(c1ccc2c(c1)OCCO2)N1CCCCC1
inactive

* * *

Assay: MRP1 drug-resistance reversers in H69AR cells – cell-based, doxorubicin co-treatment, pilot screen (AID 601)
Conditions: H69AR cells + 2 uM doxorubicin, CellTiter-Glo, 72 h; measured here: viability with 2 uM doxorubicin; at 10 µM; stronger effect = lower value
Define the label as t when viability is strictly less than 90% and as f in all remaining cases.

Solved entries:
{"compound": "N#Cc1cc2c(nc1SCC(=O)N1CCCCC1)CCCC2", "answer_label": "t"}
{"compound": "CCc1cc2c(=O)c(-c3nc4ccccc4[nH]3)coc2c(CN2CCC(C)CC2)c1O", "answer_label": "t"}

I'd appreciate it if you could check whether CCOC(=O)N1CCC(NC(=O)CN2C(=O)CCSc3ccccc32)CC1 has viability smaller than 90%.
f

I'd appreciate it if you could check whether COCCn1c(=O)[nH]c2cc(C(=O)NCCCN3CCN(c4ccc(F)cc4)CC3)ccc2c1=O has viability smaller than 90%.
f

I'd appreciate it if you could check whether O=C(Cn1ncc2c1-c1ccccc1OC2)N1CCc2ccccc21 has viability smaller than 90%.
t

I'd appreciate it if you could check whether CN1CCN(C(=O)c2ccc(CS(=O)(=O)c3c(Cl)cccc3Cl)o2)CC1 has viability smaller than 90%.
t

I'd appreciate it if you could check whether CCCSC1=C(C#N)C(c2cc(OC)ccc2OC)CC(=O)N1 (centres undefined) has viability smaller than 90%.
t

I'd appreciate it if you could check whether Cc1ccccc1Cn1ccc(NC(=O)c2onc(C)c2Cl)n1 has viability smaller than 90%.
t

I'd appreciate it if you could check whether CCOC(=O)C1=C(C)N(C)C(=O)NC1c1ccccc1OC (centres undefined) has viability smaller than 90%.
f

I'd appreciate it if you could check whether Cc1nc2ccccc2c2oc(C(=O)N3CCN(C(=O)c4ccco4)CC3)cc12 has viability smaller than 90%.
t

* * *

# Lookup of reported viability keyed by entry
Assay: viability of PTEN-null HCT116 cells – cell-based, HCT116 clonal line, CellTiter-Glo, pilot screen (AID 824);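 also: 0% = 20 µM Hyamine control and 100% = vehicle cell control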
Conditions: HCT116 PTEN-deleted viability, 60 h, at 10 µM, stronger effect = lower value
Inconclusive results are not listed.
Reply numerically in %, unit not repeated.

{"molecule": "Cn1c(C(=O)N2CCN(c3ccc(Cl)cc3)CC2)cc2c(=O)n(C)c3ccccc3c21", "result_unit": "%", "number": 90.6}

Briefly, viability measured for CCOC(=O)c1ccc2[nH]c3c(c2c1)CN(C)CC3 : 56.9

Briefly, viability measured for O=C1C(C=NCCCN2CCOCC2)=C(O)c2ccccc21 : 90.2

Briefly, viability measured for N#CCCN1CCN(S(=O)(=O)c2ccc(S(=O)(=O)NC3CCCC3)cc2)CC1 : 100

Briefly, viability measured for COc1ccc(N(CC(=O)Nc2nc3ccc(C)cc3s2)S(=O)(=O)c2c(C)nn(C)c2C)cc1 : 57.1

Briefly, viability measured for COc1cccc(-c2nc3cc(C)ccc3o2)c1 : 75.4

Briefly, viability measured for Cc1ccc(C(=O)CSc2n[nH]c(-c3ccco3)n2)cc1C : 107

Briefly, viability measured for CCCCSc1nc2c(cnn2-c2ccc(C)c(C)c2)c(=O)[nH]1 : 59.5

Briefly, viability measured for COCCCNC(=O)c1cc2c(-c3ccc(Cl)cc3)nn(C)c2s1 : 84.5

Briefly, viability measured for Cc1ccc(S(=O)(=O)NCC(=O)N2CCCCC2)cc1 : 102

Briefly, viability measured for Cc1ccccc1N1C(=O)c2cccc3c(N(C)CCO)ccc(c23)C1=O : 90.4

Briefly, viability measured for CCOC(=O)c1sc2nc(NC(=O)C(C)(C)C)sc2c1C : 74

Briefly, viability measured for O=C(Nc1ccncc1)c1cccc(F)c1 : 91.4

Briefly, viability measured for Cc1nc2sc(C(c3cccs3)N3CC(C)CC(C)C3)c(O)n2n1 (stereo not drawn) : 95.2

Briefly, viability measured for CCOC(=O)C1CCN(C(C(=O)NC2CCCCC2)c2ccc(OC)cc2)CC1 (stereo not drawn) : 88.6

Briefly, viability measured for O=C(NCc1ccccn1)C1CCC(=O)N1C1CCCC1 (stereo not drawn) : 98

Briefly, viability measured for COc1ccc2oc(-c3ccccc3)c(C(N)=O)c2c1 : 97.5

Briefly, viability measured for O=C(c1ccccc1)n1nc(-c2ccccc2)nc1NCc1ccco1 : 98.1

* * *

# Lookup of reported growth inhibition keyed by entry
Experiment: S. cerevisiae growth inhibition in restrictive medium, OD615, pilot screen, restrictive growth control, yeast lifespan reduction project (AID 706);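 also: modified DeaD lifespan yeast strain shifted to restrictive glucose medium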
Details: OD615, 48 h, at 10 µM, stronger effect = higher value
Reply numerically in %, unit not repeated.

Known growth inhibition results, listed for orientation:
{"compound": "NC(=O)C1CCN(C(=O)c2cnn(-c3ccccc3)c2NC(=O)c2ccco2)CC1", "test_readout": "growth inhibition", "result_unit": "%", "number": 1.08}
{"compound": "O=C(c1ccc(CN2CCc3ccccc3C2)cc1)N1CCCCC1", "test_readout": "growth inhibition", "result_unit": "%", "number": 3.72}
{"compound": "Cc1ccc2c(c1)-c1c(cnn1CC(=O)NC(C)CCc1ccco1)CO2 (stereo not given)", "test_readout": "growth inhibition", "result_unit": "%", "number": -5.76}
{"compound": "CN1CCN(Cc2nc3c(c(=O)n(C)c(=O)n3C)n2Cc2ccccc2Cl)CC1", "test_readout": "growth inhibition", "result_unit": "%", "number": -14.4}
{"compound": "O=C(Nc1ccc2snnc2c1)N1CCN(c2ccccc2)CC1", "test_readout": "growth inhibition", "result_unit": "%", "number": -17.1}

Briefly, growth inhibition measured for CC12CCC(C(=O)Nc3ccc4c(c3)OCCO4)(OC1=O)C2(C)C (stereo not given) : -5.64

Briefly, growth inhibition measured for COC(=O)c1cc(=O)[nH]c(SCc2cccc(C)c2)n1 : -0.94

Briefly, growth inhibition measured for O=C(c1ccco1)N1CCN(C(=O)c2sccc2-c2ccccc2)CC1 : -9.14

Briefly, growth inhibition measured for O=C(Nc1ccc(-c2nc3cccnc3s2)cc1)c1ccco1 : 9.91

Briefly, growth inhibition measured for O=C(O)c1cccc(-n2cnnn2)c1 : 1.52

Briefly, growth inhibition measured for Cc1nnc(NC(=O)CSc2nnc(Cc3cccn3C)n2-c2cccc(C)c2C)s1 : 31

Briefly, growth inhibition measured for Cn1c(=O)oc2cc(S(=O)(=O)N3CCN(c4ccccn4)CC3)ccc21 : -3.75

Briefly, growth inhibition measured for O=S(=O)(NCC(O)COCc1ccco1)c1cccs1 (stereo not given) : 2.05

Briefly, growth inhibition measured for Cc1nc(Sc2nnnn2-c2ccccc2)c(C#N)c(C)c1C : -9.12

Briefly, growth inhibition measured for CC1CCN(CC(=O)N2c3ccccc3CCc3ccccc32)CC1 : -19.2

Briefly, growth inhibition measured for Cn1c(C(=O)Nc2ccc3c(c2)OCO3)cc2c(=O)n(C)c3ccccc3c21 : -3.57

Briefly, growth inhibition measured for CC(C)CCNC(=O)Cn1c(=O)oc2cc(S(=O)(=O)N3CCc4ccccc43)ccc21 : -5.12

Briefly, growth inhibition measured for CCn1c2ccccc2c2nnc(SCC(=O)c3ccccc3)nc21 : 13.5

Briefly, growth inhibition measured for CCN(CCNC(=O)C1CCN(S(=O)(=O)c2cccc3cccnc23)CC1)c1ccccc1 : 8.53

Briefly, growth inhibition measured for CCn1cc(C(=O)N2CCn3c(nc4ccccc43)C2)c(=O)c2ccc(C)nc21 : -4.84

Briefly, growth inhibition measured for CCCC(=O)Nc1nc2ccc(S(N)(=O)=O)cc2s1 : -0.595

Briefly, growth inhibition measured for O=C1c2ccccc2C(Nc2ccc(F)c(Cl)c2)N1Cc1ccco1 (stereo not given) : -1.3

Briefly, growth inhibition measured for CCOC(=O)C1CCCN(C(=O)c2ccc(CS(=O)(=O)c3ccc(Br)cc3)o2)C1 (stereo not given) : -18.5

Briefly, growth inhibition measured for Cc1ccc2cccc(SCC(=O)N3CCOCC3)c2n1 : 24.3

Briefly, growth inhibition measured for CCOC(=O)c1sc(NC(=O)c2noc3c2CCCC3)c(C(=O)OCC)c1C : -5.25

Briefly, growth inhibition measured for Cc1cccc(Cn2c(SCCN3CCCCC3)nc3c2c(=O)[nH]c(=O)n3C)c1 : -11.3

* * *

Test: doxorubicin toxicity protection in MRP-1 cells – H69AR cells, CellTiter-Glo, duplicate, MRP-1 activator project, pilot screen (AID 807);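 also: compound pretreatment 18-22 h then 72 h combined with doxorubicin; 0% = doxorubicin alone and 100% = vehicle without doxorubicin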
Conditions: H69AR viability with doxorubicin, CellTiter-Glo luminescence; at 10 µM; stronger effect = higher value
test_readout: viability increase (%)
Reply numerically in %, unit not repeated.

Briefly, viability increase measured for CC1CCCCN1S(=O)(=O)c1ccc(NC(=O)c2cccs2)cc1 (stereo not given) : -4.32

Briefly, viability increase measured for COC(=O)CSc1nc(C)cc(Oc2ccccc2)n1 : -1.76

Briefly, viability increase measured for CCOc1ccc(-c2nnc3n2N=C(c2ccc(OC)cc2)CS3)cc1 : -5.29

Briefly, viability increase measured for Cc1oc2c(O)c(O)ccc2c(=O)c1-c1ccccc1 : 3.12

Briefly, viability increase measured for COc1ccc(NC(=O)CSc2nc3c(c(=O)n2-c2ccccc2OC)SCC3)cc1 : -0.32

Briefly, viability increase measured for CCCCN(C)C(=O)c1cn(C)c2ccc(S(=O)(=O)N(C)C)cc2c1=O : 0.32

Briefly, viability increase measured for CCN1CCN(CCCNC(=O)c2cc3sccc3n2CC)CC1 : -1.72

Briefly, viability increase measured for COc1cccc(-n2c(Cc3cc(=O)[nH]c(=O)[nH]3)nnc2SC(C)C)c1 : -0.34

Briefly, viability increase measured for Cc1ccc2oc(=O)c3cnn(CC(=O)NCCN4CCOCC4)c3c2c1 : -0.17

Briefly, viability increase measured for O=C(O)C1CCCN(S(=O)(=O)c2ccc(Cl)s2)C1 (stereo not given) : 0.34
